pIC50, GST-fused lck SH2 domain (Homo sapiens, UniProt P06239): measured values
pIC50: −log10 of the molar value.
measurementKind: pIC50

compound="O=C(/C=C/c1ccc(O)c(O)c1)N[C@@H](Cc1ccc(O)c(O)c1)C(=O)O [Example 9]" measurementkind=pIC50 observedmeasurement="4.30 to 4.60"
compound="O=C(/C=C/c1ccc(O)c(O)c1)N[C@H](Cc1ccc(O)cc1)C(=O)O [Example 46]" measurementkind=pIC50 observedmeasurement="4.30 to 4.60"
compound="COC(=O)[C@@H](Cc1ccc(O)c(O)c1)NC(=S)/C=C/c1ccc(O)c(O)c1 [Example 15]" measurementkind=pIC50 observedmeasurement="4.60 to 5.00"
compound="CC(C)(C)OC(=O)[C@H](Cc1ccc(O)c(O)c1)NC(=S)/C=C/c1ccc(O)c(O)c1 [Example 27]" measurementkind=pIC50 observedmeasurement="4.30 to 4.60"
compound="CCOC(=O)[C@H](Cc1ccc(O)c(O)c1)NC(=S)/C=C/c1ccc(O)c(O)c1 [Example 24]" measurementkind=pIC50 observedmeasurement="4.60 to 5.00"
compound="CC(C)OC(=O)[C@H](Cc1ccc(O)c(O)c1)N(C)C(=O)/C=C/c1ccc(O)c(O)c1 [Example 40]" measurementkind=pIC50 observedmeasurement="4.60 to 5.00"
compound="CCOC(=O)[C@@H](Cc1ccc(O)c(O)c1)NC(=O)/C=C/c1ccc(O)c(O)c1 [Example 3]" measurementkind=pIC50 observedmeasurement="> 5.00"
compound="CCCOC(=O)[C@@H](Cc1ccc(O)c(O)c1)NC(=O)/C=C/c1ccc(O)c(O)c1 [Example 4]" measurementkind=pIC50 observedmeasurement="> 5.00"
compound="CN(C(=O)/C=C/c1ccc(O)c(O)c1)[C@@H](Cc1ccc(O)c(O)c1)C(=O)OC(C)(C)C [Example 41]" measurementkind=pIC50 observedmeasurement="4.30 to 4.60"
compound="O=C(/C=C/c1ccc(O)c(O)c1)NCCc1ccc(O)c(O)c1 [Example 43]" measurementkind=pIC50 observedmeasurement="4.30 to 4.60"
compound="COC(=O)[C@@H](Cc1ccc(O)c(O)c1)OC(=O)/C=C/c1ccc(O)c(O)c1 [Example 54]" measurementkind=pIC50 observedmeasurement="4.60 to 5.00"
compound="COC(=O)C(Cc1ccc(O)c(O)c1)NC(=O)NCc1ccc(O)c(O)c1 (centres unmarked) [Example 49]" measurementkind=pIC50 observedmeasurement="4.60 to 5.00"
compound="COC(=O)[C@H](Cc1ccc(O)cc1)NC(=O)/C=C/c1ccc(O)c(O)c1 [Example 47]" measurementkind=pIC50 observedmeasurement="4.30 to 4.60"
compound="CN(C(=O)/C=C/c1ccc(O)c(O)c1)[C@H](Cc1ccc(O)c(O)c1)C(=O)OC(C)(C)C [Example 34]" measurementkind=pIC50 observedmeasurement="4.30 to 4.60"
compound="COC(=O)C(Cc1ccc(O)c(O)c1)NC(=O)c1ccc(O)c(O)c1 (centres unmarked) [Example 51]" measurementkind=pIC50 observedmeasurement="> 5.00"
compound="O=C(/C=C/c1ccc(O)c(O)c1)N[C@@H](Cc1ccc(O)cc1)C(=O)O [Example 48]" measurementkind=pIC50 observedmeasurement="4.30 to 4.60"
compound="COC(=O)[C@@H](Cc1ccc(O)c(O)c1)NC(=O)/C=C/c1ccc(O)c(O)c1 [Example 1]" measurementkind=pIC50 observedmeasurement="> 5.00"

FYI, the data here is from patent US20040082664A1.
